Test system: MDA-MB-231
assay summary: Cytotoxicity against human MDA-MB-231 cells after 3 days by SRB assay
Assay type: functional
test settings: MDA-MB-231, 72 h, read-out: ED50 (the source's name)
Quick list: pEC50 per entry.
Value format note: pEC50 is -log10 of concentration (mol/L); just state the number.

Consider the reported pEC50 for these compounds:
1) Cc1coc(-c2ccc3c(c2O)CCCC3(C)C)c1CO 4.40
2) COc1c(-c2occ(C)c2COC(C)=O)ccc2c1CCCC2(C)C 4.25
3) COC(=O)c1c(C)coc1-c1ccc2c(c1OC)CCCC2(C)C 4.21
4) COCc1c(C)coc1-c1ccc2c(c1OC)CCCC2(C)C 4.32
5) Cc1coc(-c2ccc3c(c2O)CCC3)c1C(=O)O 4.35

I am curious: what pEC50 value has been reported for Cc1cccc2c1ccc1c3occ(C)c3c(=O)oc21 ?
4.42

Entry to check: Cc1coc(-c2ccc3c(c2O)CCCC3)c1C(=O)O
4.13

Entry to check: Cc1coc(-c2ccc3c(c2O)CCCC3(C)C)c1C(=O)O
4.61

Entry to check: Cc1coc2c1c(=O)oc1c3c(ccc12)CCCC3
4.41

* * *

Tested on: DU-145
assay summary: Cytotoxicity against human DU145 cells after 3 days by SRB assay
Type: functional
test settings: DU-145, 72 h, read-out: ED50 (the source's name)
Quick list: log10 EC50 per entry.
Could you please treat all values as log10 of EC50 in µM?

Consider the reported log10 EC50 for these compounds:
1. Cc1coc2c1c(=O)oc1c3c(ccc12)CCCC3 1.51
2. Cc1coc(-c2ccc3c(c2O)CCCC3(C)C)c1C(=O)O 0.48
3. Cc1coc(-c2ccc3c(c2O)CCCC3(C)C)c1CO 1.36
4. COC(=O)c1c(C)coc1-c1ccc2c(c1OC)CCCC2(C)C 1.53
5. COc1c(-c2occ(C)c2COC(C)=O)ccc2c1CCCC2(C)C 1.22
6. Cc1coc(-c2ccc3c(c2O)CCC3)c1C(=O)O 1.58

I am curious: what log10 EC50 value has been reported for Cc1coc2c1c(=O)oc1c3c(ccc12)C(C)(C)CCC3 ?
1.50

Entry to check: Cc1coc(-c2ccc3c(c2O)CCCC3)c1C(=O)O
1.61

Entry to check: COc1c(-c2occ(C)c2C(=O)O)ccc2c1CCCC2(C)C
1.53

Entry to check: Cc1cccc2c1ccc1c3occ(C)c3c(=O)oc21
1.77

Entry to check: COc1c(-c2occ(C)c2CO)ccc2c1CCCC2(C)C
1.34

Entry to check: CCc1cccc2c(O)c(-c3occ(C)c3C(=O)O)ccc12
1.47

Entry to check: COCc1c(C)coc1-c1ccc2c(c1OC)CCCC2(C)C
1.24

Entry to check: CCOc1c(-c2occ(C)c2CO)ccc2c1CCCC2(C)C
1.24

Entry to check: CCOCc1c(C)coc1-c1ccc2c(c1OC)CCCC2(C)C
1.25

* * *

Quick list: EC50 per entry.
Test system: MDA-MB-231
assay summary: Cytotoxicity against human MDA-MB-231 cells after 3 days by SRB assay
Assay type: functional
test settings: MDA-MB-231, 72 h, read-out: ED50 (the source's name)
Reply numerically in µM, unit not repeated.

I am curious: what EC50 value has been reported for COc1c(-c2occ(C)c2CO)ccc2c1CCCC2(C)C ?
28.3

Entry to check: CCOc1c(-c2occ(C)c2CO)ccc2c1CCCC2(C)C
39.8

Entry to check: CCOCc1c(C)coc1-c1ccc2c(c1OC)CCCC2(C)C
42.7

* * *

Quick list: pEC50 per entry.
Test system: MDA-MB-231
assay summary: Cytotoxicity against human MDA-MB-231 cells after 3 days by SRB assay
Format: functional
test settings: MDA-MB-231, 72 h, read-out: ED50 (the source's name)
pEC50: −log10 of the molar value.

Consider the reported pEC50 for these molecules:
1. Cc1coc2c1c(=O)oc1c3c(ccc12)C(C)(C)CCC3 < 4.43
2. Cc1coc2c1c(=O)oc1c3c(ccc12)CCC3 < 4.43

Below: the item to evaluate.
I am curious: what pEC50 value has been reported for CCc1cccc2c(O)c(-c3occ(C)c3C(=O)O)ccc12 ?
< 4.43
